Sourced from PubChem BioAssay AID623911

- measured target: G protein-activated inward rectifier potassium channel 2 (Homo sapiens) + G protein-activated inward rectifier potassium channel 1 (Homo sapiens) (UniProt P48051+P48549)
- Sequence (P48051 whole entry, looked up): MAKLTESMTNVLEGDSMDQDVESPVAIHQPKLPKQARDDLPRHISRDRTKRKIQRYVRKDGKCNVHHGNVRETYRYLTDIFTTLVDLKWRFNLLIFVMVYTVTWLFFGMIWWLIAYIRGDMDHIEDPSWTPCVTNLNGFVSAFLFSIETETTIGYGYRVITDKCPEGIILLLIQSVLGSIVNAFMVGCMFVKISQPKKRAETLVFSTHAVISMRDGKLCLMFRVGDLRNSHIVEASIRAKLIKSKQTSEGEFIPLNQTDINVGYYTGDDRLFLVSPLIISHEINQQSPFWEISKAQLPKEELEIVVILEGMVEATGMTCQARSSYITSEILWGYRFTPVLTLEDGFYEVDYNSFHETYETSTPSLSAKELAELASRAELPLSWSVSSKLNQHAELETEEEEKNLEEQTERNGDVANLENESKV
- Sequence (P48549 whole entry, looked up): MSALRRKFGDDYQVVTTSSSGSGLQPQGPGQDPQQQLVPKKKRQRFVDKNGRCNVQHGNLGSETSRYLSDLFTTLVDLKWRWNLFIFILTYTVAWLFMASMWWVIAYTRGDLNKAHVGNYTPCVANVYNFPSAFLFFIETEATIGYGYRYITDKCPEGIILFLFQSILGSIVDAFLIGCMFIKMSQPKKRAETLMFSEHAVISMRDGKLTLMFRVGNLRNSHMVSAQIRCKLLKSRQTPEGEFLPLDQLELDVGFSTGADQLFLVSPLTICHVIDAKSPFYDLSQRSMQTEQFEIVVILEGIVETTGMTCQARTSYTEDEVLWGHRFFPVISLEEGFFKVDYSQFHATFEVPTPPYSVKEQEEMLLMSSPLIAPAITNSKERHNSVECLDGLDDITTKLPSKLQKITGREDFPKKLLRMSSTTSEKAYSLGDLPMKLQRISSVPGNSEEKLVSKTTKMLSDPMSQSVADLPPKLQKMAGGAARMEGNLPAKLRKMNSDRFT
- method: GIRK1/2 thallium flux modulators, retest, confirmation, cell-based, HEK293 rmGlu8/hGIRK1/2, FluoZin-2 (AID 623911)
- experimental context: HEK293 rmGlu8/hGIRK1/2, thallium flux FluoZin-2; actives lie on both sides; glutamate co-added at its EC20 level
The whole screen tested about 2,100 compounds, of which about 770 (37%) were called active. Some of the results follow.
Please go through the items and note down their manual score.
Kindly provide the number alone.

### Prompt Name the reported manual score value associated with the compound Cc1ccc(NC(=O)COC(=O)CCC(=O)c2ccc(Cl)cc2)cc1S(=O)(=O)N(C)C
### Response 1

### Prompt Name the reported manual score value associated with the compound CN(C)S(=O)(=O)c1ccc(C(=O)Nc2nnc(-c3ccc4c(c3)CCCC4)o2)cc1
### Response 0

### Prompt Name the reported manual score value associated with the compound COCC(=O)/C=C1\Sc2ccccc2N1C
### Response 0

### Prompt Name the reported manual score value associated with the compound COc1ccccc1-n1cnnc1SCC(=O)c1cc(C)n(Cc2cccs2)c1C
### Response -1

### Prompt Name the reported manual score value associated with the compound CC12CCC(C(=O)N3CCCc4ccccc43)(CC1=O)C2(C)C (configuration not stated)
### Response 0

### Prompt Name the reported manual score value associated with the compound Cc1cc(C(=O)CSc2nnc(-c3ccncc3)n2-c2ccccc2)c(C)n1C
### Response 0

### Prompt Name the reported manual score value associated with the compound O=C(Nc1nnc(-c2ccc3c(c2)CCCC3)o1)C1COc2ccccc2O1 (configuration not stated)
### Response 1

### Prompt Name the reported manual score value associated with the compound CCOCc1c(C(=O)OCC(=O)Nc2ccc(C)c(S(=O)(=O)N(C)C)c2)oc2ccccc12
### Response 1

### Prompt Name the reported manual score value associated with the compound Cn1c(C(=O)OC(C(=O)NC2CCCCC2)c2ccncc2)cc2sccc21 (configuration not stated)
### Response 0

### Prompt Name the reported manual score value associated with the compound Cc1cc(C(=O)OCC(=O)Nc2ccc(F)cc2)c(C)o1
### Response 0

### Prompt Name the reported manual score value associated with the compound CCc1ccccc1N(C)C(=O)CCc1nc(-c2ccc(C)cc2)no1
### Response -1

### Prompt Name the reported manual score value associated with the compound CC(C)N(Cc1nc(-c2ccccc2)no1)C(=O)CSc1ccccc1
### Response 0

### Prompt Name the reported manual score value associated with the compound CC(C)c1ccccc1NC(=O)COC(=O)/C=C/c1cccc([N+](=O)[O-])c1
### Response 0

### Prompt Name the reported manual score value associated with the compound Cc1ccc(NC(=O)COn2nnc3ccc(S(=O)(=O)N(C)C)cc32)cc1F
### Response 0

### Prompt Name the reported manual score value associated with the compound O=C(Nc1nnc(-c2ccc3c(c2)CCCC3)o1)c1ccccc1
### Response 1

### Prompt Name the reported manual score value associated with the compound COc1ccc(Cl)cc1C(=O)CSc1nnnn1C1CCCC1
### Response 0

### Prompt Name the reported manual score value associated with the compound N/C(=N/O)c1nc(N2CCCC2)nc(N(c2ccccc2)c2ccccc2)n1
### Response -1

### Prompt Name the reported manual score value associated with the compound O=C(Nc1ccc(-c2nc3ccccc3o2)cc1)c1cc(-n2cnnc2)ccc1Cl
### Response 0

### Prompt Name the reported manual score value associated with the compound CC1(C)CC2CC(C)(CN2C(=S)NC(=O)c2ccccc2Cl)C1 (configuration not stated)
### Response 1

### Prompt Name the reported manual score value associated with the compound O=C(CCCc1nc(-c2ccc(Cl)cc2)no1)N1CCOCC1
### Response 0

### Prompt Name the reported manual score value associated with the compound CC(C)OCCCn1c(=S)[nH]c2cc3c(cc2c1=O)OCO3
### Response 1

### Prompt Name the reported manual score value associated with the compound O=C(Nc1nnc(-c2ccc3c(c2)CCCC3)o1)c1ccc(Cl)cc1Cl
### Response 1
